Documented self-cleavage kobs at 40 uM GlcN6P across a set of variants
B1: glmS ribozyme (parent)
chain: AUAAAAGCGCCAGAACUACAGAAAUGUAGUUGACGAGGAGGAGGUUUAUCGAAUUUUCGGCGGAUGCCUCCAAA

Variants of: B1
Assay: self-cleavage kobs at 40 uM GlcN6P; higher = faster cleavage; RNA array
Settings: with glucosamine-6-phosphate
Fewer inactive variants are shown than the library holds.

AUAAAAGCGCCAGAAGUACAGAAAUGUAGUUGACGAGGAUGAGGUUUAUCGAAUUUUCGGCGGACGCCUCCAAA [C16G G40U U65C]	< 1e-05 s⁻¹
AUAAAGGCGUCAGAACUACAGAAAUGUAGUUGACGAGGAGGACGUUUAUCGAAUUUUCGGCGGAUGCCUCCAAA [A6G C10U G43C]	< 1e-05 s⁻¹
AUAAAAGCGCGAGAACUACAGAAAUGUAGUUGACCAGGAGGAGGUUUAUCGAAUUUUCGGCGGAUGCCUGCAAA [C11G G35C C70G]	8.82e-05 s⁻¹
AUAAAAGCGCCAGAACUACAGAAAUGUAGUUGACGAGGAAGAGAUUUAUCGAAUUUUCGGCGGAUGCCUUCAAA [G40A G44A C70U]	< 1e-05 s⁻¹
AUAAAAGCGCCAGAACUACAGAAAUGUACUUGACGAGUAGGAGGUUUCUCGAAUUUUCGGCGGAUGCCUCCAAA [G29C G38U A48C]	< 1e-05 s⁻¹
AUAAAAGCGCCAGAACUACAGAAAUGUAGUUGACGAGGAGGAGGUUUUUCGAAUUUUCGGCGGAUGUCUUCAAA [A48U C67U C70U]	< 1e-05 s⁻¹
AUAAAAGCGCCAGAACUACAGAAAUGUAGUUCACGAGGAGGAGGUUUAUGGAAUUUUCGGCGGAUGCCUCCAAA [G32C C50G]	4.21e-05 s⁻¹
AUAAAAGCGCCAGAACUACAGAAAUGUAGUUGACGAGGAGGAGGUUUAUCGAAUUUUCGUCAGAUGCCUUCAAA [G60U G62A C70U]	< 1e-05 s⁻¹
AUAAAAGCGCCAGAACUACAGAAAUGUAGUUGACGAGGAGGAGGUUUAUCGAAUUCUCGGGGGAUGCCUCCAAA [U56C C61G]	< 1e-05 s⁻¹
AUAAAAGCGCCAGAGCUACAGAAAUGUAGUUGACGAGGAGGAGGUUGAUCGAAUUUUCGGCGGAUGCCUCCAAA [A15G U47G]	0.000326 s⁻¹

Proceed to the following item.
Exam item: If you can, please state the reported self-cleavage kobs at 40 uM GlcN6P value of AUAAAAGCGCCAGAACUACAGAAAUGUAAUUGACGACGAGGAGGUUUAUCGAAUUUUCGGCGGAUGCCCCCAAA [G29A G37C U69C] .
Marked response: < 1e-05 s⁻¹
